Attribution: patent EP4682166A1

Target: T1, human NMI (N-myc Interacting protein) (human, UniProt Q13287 1-307, limits assumed)
T1 construct: Immunogen and ELISA coating antigen; also called hNMI; antigen 1
T1 sequence (looked up): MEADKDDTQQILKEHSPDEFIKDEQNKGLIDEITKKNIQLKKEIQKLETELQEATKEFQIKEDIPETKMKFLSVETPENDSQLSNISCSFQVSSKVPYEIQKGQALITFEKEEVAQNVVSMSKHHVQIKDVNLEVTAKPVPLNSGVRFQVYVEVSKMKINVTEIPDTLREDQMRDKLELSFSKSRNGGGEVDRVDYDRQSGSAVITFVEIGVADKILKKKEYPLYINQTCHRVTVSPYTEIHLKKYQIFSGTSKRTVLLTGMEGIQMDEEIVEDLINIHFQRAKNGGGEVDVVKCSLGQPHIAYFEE
Experiment: I-ELISA, hNMI coated 1 ug/mL; antibody 19.53125 ng/mL
Short version: OD450 at least 0.5 OD450 is 1 (yes), less is 0 (no).

binder	qualitativeLabel
39B4 (antibody, V domains shown, Rabbit monoclonal antibody; also called 39B4-1; 39B4-1-biotin (biotin-labelled form)) VH: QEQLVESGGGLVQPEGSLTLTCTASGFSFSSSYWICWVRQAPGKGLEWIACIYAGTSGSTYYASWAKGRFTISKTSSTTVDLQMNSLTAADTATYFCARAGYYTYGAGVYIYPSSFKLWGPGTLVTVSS VL: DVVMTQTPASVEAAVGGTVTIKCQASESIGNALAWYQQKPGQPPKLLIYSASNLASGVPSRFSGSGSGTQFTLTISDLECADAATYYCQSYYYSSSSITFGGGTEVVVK	1 (yes)
98G10 (antibody, V domains shown, Rabbit monoclonal antibody; also called 98G10-1; 98G10-1-biotin (biotin-labelled form)) VH: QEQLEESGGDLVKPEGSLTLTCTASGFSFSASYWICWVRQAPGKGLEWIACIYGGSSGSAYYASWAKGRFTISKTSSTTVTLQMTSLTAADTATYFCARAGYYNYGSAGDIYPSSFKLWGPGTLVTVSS VL: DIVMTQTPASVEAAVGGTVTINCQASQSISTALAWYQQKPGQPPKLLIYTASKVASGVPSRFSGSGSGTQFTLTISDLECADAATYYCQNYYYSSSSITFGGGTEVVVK	0 (no)
94C4 (antibody, V domains shown, Rabbit monoclonal antibody; also called 94C4-1; 94C4-1-biotin (biotin-labelled form)) VH: QSLEESGGGLVQPEGSLTLTCKASGFDFSSNAMCWVRQAPGKGLEWIACISSASSGSSGSTYYASWAKGRFTISKTSSTTVTLQMTSLTAADMATYFCARDGYDLWGPGTLVTVSS VL: QVLTQTPSSVSAAVGGTVTISCQSSPSVYNNYLSWFQQKPGQSPKLLIYRVSTLASGVPSRFSGSGSGTQFTLTISGVQCDDAATYYCAGGYDSASDTYVFGGGTEVVVK	1 (yes)

# next binder below
[Q] Could you please find out whether 240B10-1 (antibody, V domains shown, Rabbit monoclonal antibody; also called 240B10-1-biotin (biotin-labelled form)) VH: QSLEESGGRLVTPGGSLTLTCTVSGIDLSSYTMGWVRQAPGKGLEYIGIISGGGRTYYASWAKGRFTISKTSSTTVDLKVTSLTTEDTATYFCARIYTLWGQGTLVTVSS VL: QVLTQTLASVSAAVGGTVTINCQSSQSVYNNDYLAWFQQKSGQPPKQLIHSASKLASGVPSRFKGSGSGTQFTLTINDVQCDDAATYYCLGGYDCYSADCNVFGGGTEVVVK has OD450 that meets 0.5 OD450 or exceeds it?
[A] 1 (yes)
